# Tested on: HCT-116 wild-type cells
# Method: Inhibitory activity on proliferation of HCT-116 wild-type cells (Cell-Titer Glo)
# Format: cell-based
# Cond: Homo sapiens, 144 h, incubated 6 d, 0-10,000 nM
# key: entry, value: IC50

- Molecule: "CN(C(=O)c1cc2c3c(c(N)nc2cn1)COC3)C1COC(C)(C)c2cc(-c3ccnn3C)ccc21 (stereo not drawn)"
  IC50: "> 10000 nM"
- Molecule: "CN(C(=O)c1ccc2nc(N)c3cnn(C)c3c2c1)[C@@H]1COC(C)(C)c2nc(C(F)(F)F)ccc21"
  IC50: "> 10000 nM"
- Molecule: "CN(C(=O)c1cc2c3c(c(N)nc2cn1)COC3)[C@H]1COC(C)(C)c2cc(C(F)(F)F)ccc21"
  IC50: "> 10000 nM"
